Assignment: determine reported logP for the given molecules.
Test: log P by HPLC on reversed-phase column (C 18), EEC Directive 79831 Annex V.A8
Type: physicochemical
Conditions: HPLC reversed-phase C 18, 40° C., 0.1% aqueous formic acid and acetonitrile gradient; several values = mixture of two or more isomers
Description: In table 1, the log P values were determined in accordance with EEC Directive 79831 Annex V.A8 by HPLC (High Performance Liquid Chromatography) on a reversed-phase column (C 18), using the method described below: Temperature: 40° C.; Mobile phases: 0.1% aqueous formic acid and acetonitrile; linear gradient from 10% acetonitrile to 90% acetonitrile. […]
Numbers only.

| MOLECULE | logP |
| --- | --- |
| Cn1cc(C(=O)N(CC2CCCC3CCCCC32)C2CC2)c(C(F)F)n1 (centres unmarked) | 4.37 |
| CC1C(NC(=O)c2c(C(F)F)nn(C)c2F)CC2CC1C2(C)C (centres unmarked) [Example 49] | 3.61 |
| CC1CC(C)(C)C2CCCC(NC(=O)c3c(C(F)F)nn(C)c3F)C12 (centres unmarked) | 4.29 |
| CON(C(=O)c1cn(C)nc1C(F)F)C1CCC2CCCCC21 (centres unmarked) | 3.50 |
| Cn1cc(C(=O)N(C2CC2)C2CCCC3CCCC32)c(C(F)F)n1 (centres unmarked) | 3.48 |
| Cn1cc(C(=O)N(C2CC2)C2CC3CCCCC3C2)c(C(F)F)n1 (centres unmarked) | 3.61 |
| Cn1cc(C(=O)N(CC2CCC3CCCC3C2)C2CC2)c(C(F)F)n1 (centres unmarked) | 3.92 |
| Cn1nc(C(F)F)c(C(=O)NCC23CC4CC(CC(C4)C2)C3)c1Cl | 3.89 |
| Cn1cc(C(=O)N(CC2(Cc3ccccc3)CC3CCC2C3)C2CC2)c(C(F)F)n1 (centres unmarked) | 4.32 |
| Cn1nc(C(F)F)c(C(=O)N(C2CC2)C2CCC3CCCC32)c1F (centres unmarked) [Example 4] | 3.55 |

Would you mind giving logP for every molecule in the list below?
1. Cn1nc(C(F)F)c(C(=O)N(C2CC2)C2CCC3CCCC32)c1F (centres unmarked) [Example 5]
2. CON(C(=O)c1c(C(F)F)nn(C)c1F)C1CCC2CCCCC21 (centres unmarked)
3. Cn1nc(C(F)F)c(C(=O)NC2CCCC3CCCCC32)c1F (centres unmarked)
4. Cn1cc(C(=O)N(C2CC2)C2CCC3CCCC32)c(C(F)F)n1 (centres unmarked) [Example 6]
5. CC1C(NC(=O)c2c(C(F)F)nn(C)c2F)CC2CC1C2(C)C (centres unmarked) [Example 50]
6. Cc1nn(C)c(F)c1C(=S)N(C1CC1)C(C)C1CC2CCC1C2 (centres unmarked)

Result string:
3.65
3.72
3.60
3.02
3.61
4.34

====

tested on: Uromyces appendiculatus; assay: Example Q: in vivo preventive test on Uromyces appendiculatus (bean rust); conditions: Uromyces appendiculatus on bean plants, 500 ppm of active ingredient, grading 11 days after contamination
METRIC: Efficacy (%)
One number for each entry, in %.

| COMPOUND | Efficacy / % |
| --- | --- |
| Cn1nc(C(F)F)c(C(=O)N(C2CC2)C2CCC3CCCC3C2)c1F (mixture of isomers) | 100 |

For each of the compounds below, note its Efficacy.
1. Cn1cc(C(=O)N(CC2CCC3CCCC32)C2CC2)c(C(F)F)n1 (stereo not drawn)
2. Cn1nc(C(F)F)c(C(=O)N(C2CC2)C2CCC3CCCC32)c1F (stereo not drawn)

Result string:
1. 75
2. 100

// each compound listed below needs its Efficacy
1. CON(C(=O)c1c(C(F)F)nn(C)c1F)C1CCC2CCCCC21 (stereo not drawn)
2. Cn1nc(C(F)F)c(C(=O)N(C2CC2)C2CC3CCCCC3C2)c1F (stereo not drawn)

Result string:
[100, 97]

Need Efficacy for each of these compounds.
1. Cn1nc(C(F)F)c(C(=O)N(CC2CCCC3CCCCC32)C2CC2)c1F (stereo not drawn)
2. Cn1cc(C(=O)N(CC2(Cc3ccccc3)CC3CCC2C3)C2CC2)c(C(F)F)n1 (stereo not drawn)
3. Cn1nc(C(F)F)c(C(=O)N(C2CC2)C2CCCC3CCCC32)c1F (stereo not drawn)
4. Cn1nc(C(F)F)c(C(=O)NC2CC3CCC2C3)c1F (stereo not drawn)
5. Cn1cc(C(=O)N(C2CC2)C2CCC3CCCC32)c(C(F)F)n1 (stereo not drawn) [Example 7]
6. CON(C(=O)c1cn(C)nc1C(F)F)C(C)C1CC2CCC1C2 (stereo not drawn)
7. Cn1cc(C(=O)N(C2CC2)C2CC3CCCCC3C2)c(C(F)F)n1 (stereo not drawn)

Result string:
100
88
100
87
94
100
91

Would you be so kind as to report Efficacy for each listed record?
1. CC(C1CC2C=CC1C2)N(C(=O)c1cn(C)nc1C(F)F)C1CC1 (mixture of isomers)
2. Cn1cc(C(=O)N(C2CC2)C2CCC3CCCC32)c(C(F)F)n1 (stereo not drawn) [Example 6]

Result string:
1: 92; 2: 77

Please state Efficacy for every compound in the list that follows.
1. Cn1nc(C(F)F)c(C(=O)N(C2CC2)C2CCCC3CCCCC32)c1F (mixture of isomers)
2. Cn1nc(C(F)F)c(C(=O)NC2CCCC3CCCCC32)c1F (stereo not drawn)
3. Cn1nc(C(F)F)c(C(=O)N(CC2CCCC3CCCCC32)C2CC2)c1Cl (stereo not drawn)
4. CON(C(=O)c1cn(C)nc1C(F)F)C1CCC2CCCCC21 (stereo not drawn)
5. Cn1nc(C(F)F)c(C(=O)N(C2CC2)C2CCC3CCCCC3C2)c1F (mixture of isomers)
6. Cn1cc(C(=O)NC2CC3CCC2C3)c(C(F)F)n1 (stereo not drawn)

Result string:
100
80
87
100
100
85

Fill in Efficacy for each of the 5 compounds listed.
1. Cn1nc(C(F)F)c(C(=O)NC2CCC3CCCC32)c1Cl (stereo not drawn)
2. Cn1nc(C(F)F)c(C(=O)NC2CC3CCC2C3)c1Cl (stereo not drawn)
3. Cn1nc(C(F)F)c(C(=O)N(C2CC2)C2CCCC3CCCCC32)c1Cl (stereo not drawn)
4. Cn1cc(C(=O)N(C2CC2)C2CCCC3CCCC32)c(C(F)F)n1 (stereo not drawn)
5. Cn1nc(C(F)F)c(C(=O)N(CC2(Cc3ccccc3)CC3CCC2C3)C2CC2)c1F (stereo not drawn)

Result string:
100
83
89
100
96

For every item in the list below, what is its measured Efficacy?
1. Cn1nc(C(F)F)c(C(=O)N(C2CC2)C2CCC3CCCC3C2)c1Cl (mixture of isomers)
2. Cn1nc(C(F)F)c(C(=O)NC2CCC3CCCC32)c1F (stereo not drawn)
3. Cn1nc(C(F)F)c(C(=O)N(CC2CCC3CCCC3C2)C2CC2)c1F (stereo not drawn)
4. Cn1cc(C(=O)NC2CCC3CCCC32)c(C(F)F)n1 (stereo not drawn)
5. Cn1cc(C(=O)N(CC2CCCC3CCCCC32)C2CC2)c(C(F)F)n1 (stereo not drawn)

Result string:
1. 98
2. 98
3. 100
4. 95
5. 88

====

Record form. Attribute: logP. Fill in for each entry.
assay: log P by HPLC on reversed-phase column (C 18), EEC Directive 79831 Annex V.A8; format: physicochemical
Numbers only.

| MOLECULE | METRIC | NUMERIC_RESULT |
| --- | --- | --- |
| CC(C)N(C(=O)c1c(C(F)F)nn(C)c1F)C1CCCC2CCCCC21 (centres unmarked) | logP | 4.58 |

For each entry beneath this line, provide reported logP.
1. CC1C(NC(=O)c2cn(C)nc2C(F)F)CC2CC1C2(C)C (centres unmarked) [Example 52]
2. CC1CC(C)(C)C2CCCC(NC(=O)c3c(C(F)F)nn(C)c3Cl)C12 (centres unmarked)
3. Cn1nc(C(F)F)c(C(=S)N(C2CC2)C2CCC3CCCC3C2)c1F (centres unmarked)

Result string:
[3.19, 4.49, 4.90]

For every item below, please supply its logP.
1. CC1CC1N(C(=O)c1c(C(F)(F)F)nn(C)c1F)C(C)C1CC2CCC1C2 (centres unmarked)
2. CC1C(NC(=O)c2c(C(F)F)nn(C)c2Cl)CC2CC1C2(C)C (centres unmarked)
3. CC(NC(=O)c1c(C(F)F)nn(C)c1F)C12CC3CC(CC(C3)C1)C2 (centres unmarked)

Result string:
1: 4.92; 2: 3.79; 3: 4.03

Parameters: items (list). Returns: logP for each item.
1. Cn1nc(C(F)F)c(C(=O)NC2(C#N)CC3CCC2C3)c1F (centres unmarked)
2. CC1C(CNC(=O)c2c(C(F)F)nn(C)c2F)CC2CC1C2(C)C (centres unmarked)

Result string:
1: 2.16; 2: 3.99

# batch: return logP for each of the 3 molecules below
1. Cn1nc(C(F)F)c(C(=O)NCC2CCC3CC2C3(C)C)c1F (centres unmarked)
2. Cn1nc(C(F)F)c(C(=O)N(CC2CCC3CCCC32)C2CC2)c1F (centres unmarked)
3. Cn1nc(C(F)F)c(C(=O)NC2C3(C)CCC(C3)C2(C)C)c1Cl (centres unmarked)

Result string:
1. 3.62
2. 3.96
3. 3.92

The following molecules each have a reported value; give each one's logP.
1. CC1C(NC(=O)c2cn(C)nc2C(F)F)CC2CC1C2(C)C (centres unmarked) [Example 54]
2. CN(C(=O)c1cn(C)nc1C(F)F)C1CCC2CCCCC21 (centres unmarked)
3. CC1C(CNC(=O)c2c(C(F)F)nn(C)c2Cl)CC2CC1C2(C)C (centres unmarked)
4. Cc1nn(C)c(F)c1C(=O)NC1CCCC2C1C(C)CC2(C)C (centres unmarked)
5. Cn1cc(C(=O)NCC23CC4CC(CC(C4)C2)C3)c(C(F)F)n1

Result string:
1: 3.19; 2: 2.88; 3: 4.25; 4: 3.76; 5: 3.29
